B1: CPEB3 Ribozyme (parent)
chain: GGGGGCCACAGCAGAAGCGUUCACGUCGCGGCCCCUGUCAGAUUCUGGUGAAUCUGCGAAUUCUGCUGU

Variants of: B1
Assay: self-cleavage, relative activity (ratio to wild type); higher = more cleavage; co-transcriptional
Param threshold (0.6) applies to self-cleavage; output Met when value >= threshold, Not met when value < threshold.

GCGGGCCACAGCAGAAGCGUUCACGUCGCGGCCCCUGUCAGAUUCUGGUGAAUCUGCGAAUUCUGCGGU [G2C U67G]; Not met
GGGGGCCACAGCAGAAGCGUUCACGUCGCGGCCCCUGUCAGAUUCUGGAAAAUCUGCGAAUUCUGCUGU [U49A G50A]; Met

Turning now to a further record.
Evaluate GGGGGCCACAGCAAAAGCGUUCACGUCGCGGCCCCUGUCAGAUUCUGGUGAAUCUGCGAAUUCUUCUGU [G14A G65U] : self-cleavage at minimum 0.6?
Not met
